test system: LK-2; assay: relative viability (nuclei count vs DMSO), 5 days (fraction); higher = more cells survive; conditions: first compound 0.1265 µM
outcomeMeasure: relative viability
Lab note: record the figure alone, no unit after it.

Reference set, count: 2
Cc1sc2c(c1C)C(c1ccc(Cl)cc1)=N[C@@H](CC(=O)OC(C)(C)C)c1nnc(C)n1-2 [JQ1] + CS(=O)(=O)CCNCc1ccc(-c2ccc3ncnc(Nc4ccc(OCc5cccc(F)c5)c(Cl)c4)c3c2)o1 [Lapatinib] (partner 2 µM): 0.896
Cc1sc2c(c1C)C(c1ccc(Cl)cc1)=N[C@@H](CC(=O)OC(C)(C)C)c1nnc(C)n1-2 [JQ1] + C[C@]1(O)C[C@@H](c2nc(-c3ccc4ccc(-c5ccccc5)nc4c3)c3c(N)nccn32)C1 [Linsitinib] (partner 1 µM): 0.662

Let us examine a further case.
[ask] GET /values?readout=relative viability&item= Cc1sc2c(c1C)C(c1ccc(Cl)cc1)=N[C@@H](CC(=O)OC(C)(C)C)c1nnc(C)n1-2 [JQ1] + N=C(N)NC(=N)NCCc1ccccc1 [Phenformin] (partner 250 µM)
[reply] 0.379

###

compounds and their reported relative viability
system: LCLC-103H; test: relative viability (nuclei count vs DMSO), 5 days (fraction); higher = more cells survive; settings: first compound 0.05 µM
Lab note: record the figure alone, no unit after it.

COc1cc2nccc(Oc3ccc(NC(=O)Nc4cc(C)on4)c(Cl)c3)c2cc1OC [Tivozanib] + O=C(CCCCCCC(=O)Nc1ccccc1)NO [Vorinostat] (partner 1 µM): 0.86
Nc1ccn([C@@H]2O[C@H](CO)[C@@H](O)[C@@H]2O)c(=O)n1 [Cytarabine] + CCNC(=O)c1noc(-c2cc(C(C)C)c(O)cc2O)c1-c1ccc(CN2CCOCC2)cc1 [Luminespib] (partner 0.01 µM): 1.03

Let us examine a further case.
[ask] GET /values?readout=relative viability&item= COc1cc2nccc(Oc3ccc(NC(=O)Nc4cc(C)on4)c(Cl)c3)c2cc1OC [Tivozanib] + CCNC(=O)c1noc(-c2cc(C(C)C)c(O)cc2O)c1-c1ccc(CN2CCOCC2)cc1 [Luminespib] (partner 0.01 µM)
[reply] 0.91

###

compounds and their reported relative viability
test system: EPLC-272H; assay: relative viability (nuclei count vs DMSO), 5 days (fraction); higher = more cells survive; settings: first compound 5 µM
Lab note: record the figure alone, no unit after it.

Reference set, count: 5
O=C(O)CCCCC(CCSCc1ccccc1)SCc1ccccc1 (stereo not drawn) [CPI-613] + Cc1cc(Nc2cc(N3CCN(C)CC3)nc(Sc3ccc(NC(=O)C4CC4)cc3)n2)n[nH]1 [Tozasertib] (partner 0.1 µM): 0.285
O=C(O)CCCCC(CCSCc1ccccc1)SCc1ccccc1 (stereo not drawn) [CPI-613] + C[C@]1(O)C[C@@H](c2nc(-c3ccc4ccc(-c5ccccc5)nc4c3)c3c(N)nccn32)C1 [Linsitinib] (partner 1 µM): 1.21
O=C(O)CCCCC(CCSCc1ccccc1)SCc1ccccc1 (stereo not drawn) [CPI-613] + CC(=O)c1c(C)c2cnc(Nc3ccc(N4CCNCC4)cn3)nc2n(C2CCCC2)c1=O [Palbociclib] (partner 0.5 µM): 0.348
O=C(O)CCCCC(CCSCc1ccccc1)SCc1ccccc1 (stereo not drawn) [CPI-613] + CC(=O)Nc1cccc(-n2c(=O)n(C3CC3)c(=O)c3c(Nc4ccc(I)cc4F)n(C)c(=O)c(C)c32)c1 [Trametinib] (partner 0.02 µM): 0.233
O=C(O)CCCCC(CCSCc1ccccc1)SCc1ccccc1 (stereo not drawn) [CPI-613] + Cc1nc(NC(=O)N2CCC[C@H]2C(N)=O)sc1-c1ccnc(C(C)(C)C(F)(F)F)c1 [Alpelisib] (partner 2 µM): 0.95

[ask] GET /values?readout=relative viability&item= O=C(O)CCCCC(CCSCc1ccccc1)SCc1ccccc1 (stereo not drawn) [CPI-613] + Cc1nc(Nc2ncc(C(=O)Nc3c(C)cccc3Cl)s2)cc(N2CCN(CCO)CC2)n1 [Dasatinib] (partner 0.075 µM)
[reply] 0.317

[ask] GET /values?readout=relative viability&item= O=C(O)CCCCC(CCSCc1ccccc1)SCc1ccccc1 (stereo not drawn) [CPI-613] + CC(C)C[C@H](NC(=O)[C@H](Cc1ccccc1)NC(=O)c1cnccn1)B(O)O [Bortezomib] (partner 0.002 µM)
[reply] 0.937

[ask] GET /values?readout=relative viability&item= O=C(O)CCCCC(CCSCc1ccccc1)SCc1ccccc1 (stereo not drawn) [CPI-613] + O=C(CCCCCCC(=O)Nc1ccccc1)NO [Vorinostat] (partner 1 µM)
[reply] 0.509

###

test system: NCI-H2342; assay: relative viability (nuclei count vs DMSO), 5 days (fraction); higher = more cells survive; conditions: first compound 0.0002 µM
outcomeMeasure: relative viability

Reference set, count: 3
CC(=O)O[C@@]12CO[C@@H]1C[C@H](O)[C@@]1(C)C(=O)[C@H](O)C3=C(C)[C@@H](OC(=O)[C@H](O)[C@@H](NC(=O)OC(C)(C)C)c4ccccc4)C[C@@](O)([C@@H](OC(=O)c4ccccc4)[C@H]21)C3(C)C [Docetaxel] + O=C(CCCCCCC(=O)Nc1ccccc1)NO [Vorinostat] (partner 1 µM): 0.625
CC(=O)O[C@@]12CO[C@@H]1C[C@H](O)[C@@]1(C)C(=O)[C@H](O)C3=C(C)[C@@H](OC(=O)[C@H](O)[C@@H](NC(=O)OC(C)(C)C)c4ccccc4)C[C@@](O)([C@@H](OC(=O)c4ccccc4)[C@H]21)C3(C)C [Docetaxel] + CC(=O)Nc1cccc(-n2c(=O)n(C3CC3)c(=O)c3c(Nc4ccc(I)cc4F)n(C)c(=O)c(C)c32)c1 [Trametinib] (partner 0.02 µM): 0.898
CC(=O)O[C@@]12CO[C@@H]1C[C@H](O)[C@@]1(C)C(=O)[C@H](O)C3=C(C)[C@@H](OC(=O)[C@H](O)[C@@H](NC(=O)OC(C)(C)C)c4ccccc4)C[C@@](O)([C@@H](OC(=O)c4ccccc4)[C@H]21)C3(C)C [Docetaxel] + N=C(N)NC(=N)NCCc1ccccc1 [Phenformin] (partner 250 µM): 0.478

[ask] GET /values?readout=relative viability&item= CC(=O)O[C@@]12CO[C@@H]1C[C@H](O)[C@@]1(C)C(=O)[C@H](O)C3=C(C)[C@@H](OC(=O)[C@H](O)[C@@H](NC(=O)OC(C)(C)C)c4ccccc4)C[C@@](O)([C@@H](OC(=O)c4ccccc4)[C@H]21)C3(C)C [Docetaxel] + NC(=O)Nc1cc(-c2cccc(F)c2)sc1C(=O)N[C@H]1CCCNC1 [AZD7762] (partner 0.2 µM)
[reply] 0.46

[ask] GET /values?readout=relative viability&item= CC(=O)O[C@@]12CO[C@@H]1C[C@H](O)[C@@]1(C)C(=O)[C@H](O)C3=C(C)[C@@H](OC(=O)[C@H](O)[C@@H](NC(=O)OC(C)(C)C)c4ccccc4)C[C@@](O)([C@@H](OC(=O)c4ccccc4)[C@H]21)C3(C)C [Docetaxel] + Cc1nc(Nc2ncc(C(=O)Nc3c(C)cccc3Cl)s2)cc(N2CCN(CCO)CC2)n1 [Dasatinib] (partner 0.075 µM)
[reply] 0.309

[ask] GET /values?readout=relative viability&item= CC(=O)O[C@@]12CO[C@@H]1C[C@H](O)[C@@]1(C)C(=O)[C@H](O)C3=C(C)[C@@H](OC(=O)[C@H](O)[C@@H](NC(=O)OC(C)(C)C)c4ccccc4)C[C@@](O)([C@@H](OC(=O)c4ccccc4)[C@H]21)C3(C)C [Docetaxel] + CCNC(=O)c1noc(-c2cc(C(C)C)c(O)cc2O)c1-c1ccc(CN2CCOCC2)cc1 [Luminespib] (partner 0.01 µM)
[reply] 0.673

###

compounds and their reported relative viability
tested on: NCI-H3122; test: relative viability (nuclei count vs DMSO), 5 days (fraction); higher = more cells survive; settings: first compound 50 µM
Lab note: record the figure alone, no unit after it.

Reference set, count: 5
O=C(O)CCCCC(CCSCc1ccccc1)SCc1ccccc1 (stereo unspecified) [CPI-613] + CS(=O)(=O)N1CCN(Cc2cc3nc(-c4cccc5[nH]ncc45)nc(N4CCOCC4)c3s2)CC1 [Pictilisib] (partner 1 µM): 0.591
O=C(O)CCCCC(CCSCc1ccccc1)SCc1ccccc1 (stereo unspecified) [CPI-613] + CC(=O)Nc1cccc(-n2c(=O)n(C3CC3)c(=O)c3c(Nc4ccc(I)cc4F)n(C)c(=O)c(C)c32)c1 [Trametinib] (partner 0.02 µM): 0.295
O=C(O)CCCCC(CCSCc1ccccc1)SCc1ccccc1 (stereo unspecified) [CPI-613] + O=C(CCCCCCC(=O)Nc1ccccc1)NO [Vorinostat] (partner 1 µM): 0.961
O=C(O)CCCCC(CCSCc1ccccc1)SCc1ccccc1 (stereo unspecified) [CPI-613] + NC(=O)Nc1cc(-c2cccc(F)c2)sc1C(=O)N[C@H]1CCCNC1 [AZD7762] (partner 0.2 µM): 1.01
O=C(O)CCCCC(CCSCc1ccccc1)SCc1ccccc1 (stereo unspecified) [CPI-613] + O=C(c1cc(Cc2n[nH]c(=O)c3ccccc23)ccc1F)N1CCN(C(=O)C2CC2)CC1 [Olaparib] (partner 8 µM): 0.574

[ask] GET /values?readout=relative viability&item= O=C(O)CCCCC(CCSCc1ccccc1)SCc1ccccc1 (stereo unspecified) [CPI-613] + N=C(N)NC(=N)NCCc1ccccc1 [Phenformin] (partner 250 µM)
[reply] 0.339

The origin of these recorded values is the supplement of paper PMC10307832.
